# credit: patent US20240182472A1

System: HBV S-antigen secretion
Test: HBsAg assay (HepG2 HBV S-antigen secretion biological assay)
Assay type: cell-based
Conditions: Hepatitis B virus, HepG2.2.15, 72 h, read-out: EC50, HBV S-antigen secretion
Entries are sorted into classes by EC50 as follows: b0: < 4 nM; b1: ≥ 4 nM and < 10 nM; b2: ≥ 10 nM

## Input Bin? "CC(C)(C)[C@@H]1Cn2nc3c(OCCCCCCCCC(=O)O)cccc3c2-c2cc(=O)c(C(=O)O)cn21"
## Output b0

## Input Exercise: read the entry "CC(C)OC(=O)CCCCCCCOc1cccc2c3n(nc12)C[C@@H](C(C)(C)C)n1cc(C(=O)O)c(=O)cc1-3" and state which class it falls under.
## Output b1

## Input Pick a category. Item: "CC(C)(C)[C@@H]1Cn2nc3c(OCCCCCC(=O)O)cccc3c2-c2cc(=O)c(C(=O)O)cn21"
## Output b2

## Input Please let me know in which category the item "CCCCCCCOC(=O)CCCCCCOc1cccc2c3n(nc12)C[C@@H](C(C)(C)C)n1cc(C(=O)O)c(=O)cc1-3" belongs.
## Output b2

## Input Please indicate the class for "CCOC(=O)CCCCCCOc1cccc2c3n(nc12)C[C@@H](C(C)(C)C)n1cc(C(=O)O)c(=O)cc1-3" based on its EC50.
## Output b2

## Input Sort "CCOC(=O)CCCCCCCOc1cccc2c3n(nc12)C[C@@H](C(C)(C)C)n1cc(C(=O)O)c(=O)cc1-3" into one of the categories.
## Output b1

## Input Kindly state the category for this molecule: "CC(C)(C)[C@@H]1Cn2nc3c(OCCCCCCC(=O)O)cccc3c2-c2cc(=O)c(C(=O)O)cn21"
## Output b1

## Input Where would "CC(C)(C)[C@@H]1Cn2nc3c(OCCCCCCCC(=O)O)cccc3c2-c2cc(=O)c(C(=O)O)cn21" land among the classes by reported EC50?
## Output b0
